These entries and their values trace back to the CheMixHub ionic liquid set.

assay: xn = mol fraction of the nth substance listed; conditions: 293.15 K; 101 kPa; x1 = 0.02551
Property: electrical conductivity (S/m)

- Cc1n(S(=O)(=O)O)cc[n+]1S(=O)(=O)O.O=C([O-])C(F)(F)F + CC#N: 1.29

I: CCc1n(S(=O)(=O)O)cc[n+]1S(=O)(=O)O.O=C([O-])C(F)(F)F + CC#N
II: CCc1n(S(=O)(=O)O)cc[n+]1S(=O)(=O)O.O=C([O-])C(F)(F)F + CO
III: O=C([O-])C(F)(F)F.O=S(=O)(O)n1cc[n+](S(=O)(=O)O)c1 + CC#N
Enquiry: // ascending sort on recorded electrical conductivity Reply format: the labels, ordered as requested.
Return: I, III, II
(I: 1.11 S/m, III: 1.59 S/m, II: 3.28 S/m)
